Experiment: NCI Yeast Anticancer Drug Screen. Data for the bub3 strain (AID 167)
Conditions: S. cerevisiae bub3 mutant strain, at 50.0 µM, stronger effect = higher value
This is part of a sample that, as a whole, favours compounds with a hit. Of some 79,000 tested, about 15% had one in any assay.
Give measured growth inhibition for each item. Keep answers brief.
Give bare numbers, in %.

Known results for compounds:
O=[N+]([O-])/C(Cl)=C/C(=C1/Nc2ccccc2O1)[N+](=O)[O-] 71.2
Nc1ncnc2c1c(-c1ccc(Cl)cc1)cn2-c1ccccc1 48.7

Note: attention shifts to another entry.
Qu. What value of growth inhibition has been reported for the following compound? "CC1=CCCc2c1cc1ccc3cccc4ccc2c1c34"
Ans. 91.2
